# credit: patent EP4786492A1

Measured MFI of individual entries
- System: human DLL3 protein expressed on CHO-K1 recombinant cells (human DLL3 extracellular segment fused to EpCAM transmembrane and intracellular regions) (human) (UniProt Q9NYJ7)
- Sequence (Q9NYJ7 other isoform, or with tags, fused parts or gaps limits assumed): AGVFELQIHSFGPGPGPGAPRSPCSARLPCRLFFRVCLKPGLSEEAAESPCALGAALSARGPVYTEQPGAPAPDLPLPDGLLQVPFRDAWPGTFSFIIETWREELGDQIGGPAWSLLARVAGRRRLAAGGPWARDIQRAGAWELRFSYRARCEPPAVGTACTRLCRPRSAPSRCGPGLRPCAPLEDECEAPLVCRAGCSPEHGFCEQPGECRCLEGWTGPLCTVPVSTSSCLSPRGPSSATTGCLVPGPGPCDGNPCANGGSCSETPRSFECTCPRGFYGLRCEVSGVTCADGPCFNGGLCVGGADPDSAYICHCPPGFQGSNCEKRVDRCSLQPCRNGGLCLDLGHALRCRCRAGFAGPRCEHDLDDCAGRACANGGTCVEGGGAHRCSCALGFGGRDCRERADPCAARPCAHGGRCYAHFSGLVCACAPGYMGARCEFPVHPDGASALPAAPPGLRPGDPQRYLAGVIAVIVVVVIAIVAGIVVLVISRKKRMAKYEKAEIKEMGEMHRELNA
- Experimental Details: FACS, CHO-K1 hDLL3 cells, 20 nM antibody
Write the answer as a number in MFI, unit excluded.

Exam item: Provide measured MFI value, entry: Hab015VL5VH1a-hFc (scFv, part only; not given: scFv linker and human IgG1 Fc, V domains shown, not shown: another chain or arm of the molecule; a dimerising Fc or GST; small tags and cut ends) VL: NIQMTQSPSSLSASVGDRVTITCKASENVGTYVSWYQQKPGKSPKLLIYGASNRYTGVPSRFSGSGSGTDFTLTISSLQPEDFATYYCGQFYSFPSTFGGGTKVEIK VH: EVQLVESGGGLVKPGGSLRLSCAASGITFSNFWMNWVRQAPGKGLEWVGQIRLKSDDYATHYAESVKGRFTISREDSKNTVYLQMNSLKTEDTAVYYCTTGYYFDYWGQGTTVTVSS
Marked response: 11800
